Listing of entries alongside the reported IC50.
Experimental Target: Mdm2/p53 binding (GST-Mdm2 / His-p53) (Homo sapiens, UniProt Q00987, L33E)
Construct: Mdm2 partial protein having Mdm2 amino acids at positions 25 to 108
Sequence (Q00987 25-108 L33E): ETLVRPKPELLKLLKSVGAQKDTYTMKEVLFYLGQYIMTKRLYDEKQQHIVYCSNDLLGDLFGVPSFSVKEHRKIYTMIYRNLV
Assay Summary: Mdm2/p53 binding assay (HTRF, His-p53 and GST-Mdm2)
Condition Details: His-p53 (aa 1-132) and GST-Mdm2 (aa 25-108, L33E) 6.25 nM each; 25°C, 1 hour; values given as ranges

// worked examples, IC50 included
molecule=CC1(C)CCC2(CC1)N[C@@H](C(=O)N[C@@H]1CC[C@@H](C(=O)NC3CCOCC3)OC1)[C@H](c1ccnc(Cl)c1F)[C@]21C(=O)Nc2cc(Cl)ccc21 quantity_kind=IC50 assay_result="0.001 to 0.05 µM"
molecule=CC1(C)CCC2(CC1)N[C@@H](C(=O)N[C@@H]1CC[C@@H](c3nnco3)OC1)[C@H](c1ccnc(Cl)c1)[C@]21C(=O)Nc2cc(Cl)ccc21 quantity_kind=IC50 assay_result="0.001 to 0.05 µM"
molecule=CN(C)C(=O)[C@H]1C[C@H](NC(=O)[C@@H]2NC3(CC(CF)(CF)C3)[C@@]3(C(=O)Nc4cc(Cl)ccc43)[C@H]2c2cccc(Cl)c2F)C1 quantity_kind=IC50 assay_result="0.05 to 0.1 µM"
molecule="CC1(C)CCC2(CC1)N[C@@H](C(=O)N[C@H]1CC[C@H](c3nnco3)CC1)[C@H](c1ccnc(Cl)c1F)[C@]21C(=O)Nc2nc(Cl)ccc21 (relative stereo)" quantity_kind=IC50 assay_result="0.05 to 0.1 µM"

API: the following record is the query input.
Q: Entry under review: `CCNC(=O)[C@@H]1CC[C@@H](NC(=O)[C@@H]2NC3(CCC(C)(C)CC3)[C@@]3(C(=O)Nc4cc(Cl)ccc43)[C@H]2c2ccnc(Cl)c2F)CO1` . Reported IC50?
Ans: 0.05 to 0.1 µM
